Test system: Wolbachia pipientis
Test: Anti-Wolbachia Cell-Based Screen
Format: functional
Parameters: scale not given: in the data most compounds retested in dose-response had high values
Settings: 5 µM
The whole screen tested about 48,000 compounds, of which about 13,000 (27%) showed an effect of 50% or more. The list shows a part of the results.
measurement label: Percent Effect (%)

Cn1cnc(S(=O)(=O)N2CCOCC2)c1Cl
-4.923
Cc1sc2nc(CCN)nc(N3CCS(=O)(=O)CC3)c2c1C
5.115
O=C(c1ccc(F)c(F)c1)N1CCCC(Nc2ccc(F)cc2)C1 (stereo not given)
-4.983
O=C(c1ccc(-n2cnnn2)cc1)N1CCCC(n2ccnc2)C1 (stereo not given)
90.08
Cc1ccn(-c2ccc(C(=O)N3CCCC(n4ccnc4)C3)cc2)n1 (stereo not given)
4.214
